The reported measurements were obtained from patent US9765056B2.

# measuredOn: Bcl-2 protein (histag-Bcl-2, UniProtKB P10415) (Homo sapiens (Human), UniProt P10415)
# Sequence (P10415 whole entry): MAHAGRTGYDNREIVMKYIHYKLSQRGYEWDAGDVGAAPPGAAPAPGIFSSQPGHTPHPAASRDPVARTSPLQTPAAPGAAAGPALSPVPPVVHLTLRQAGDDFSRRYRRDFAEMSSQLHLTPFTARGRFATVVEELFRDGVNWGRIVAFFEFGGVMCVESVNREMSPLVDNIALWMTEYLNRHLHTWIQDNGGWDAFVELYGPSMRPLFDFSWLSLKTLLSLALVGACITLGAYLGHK
# runDescription: Inhibition of Bcl-2 by the fluorescence polarisation technique
# Assay type: binding
# conditionDescription: fluorescence polarisation test; method A, or method B where underlined (underlining not visible); read-out: IC50 (nM) Bcl-2 FP
Where a name gives a salt, the structure may show the parent alone.
The label label 1 is reserved for IC50 strictly under 20 nM; label 0 covers values equal to or above it.

compound=Cc1cc(C(=O)N(c2ccc(O)cc2)c2ccc3c(ccn3C)c2)cn1-c1cc2c(cc1C(=O)N1Cc3ccccc3C[C@H]1CN1CCOCC1)CCO2 grouplabel="label 1"
compound=Cc1cc(C(=O)N(c2ccc(O)cc2)c2ccc3[nH]ccc3c2)cn1-c1cc(Br)ccc1C(=O)N1Cc2ccccc2C[C@H]1C(=O)N1CCN(C)CC1 grouplabel="label 0"
compound="Cc1c(C(=O)N(c2ccc(O)cc2)c2cnc3c(c2)CCN3C)cn(-c2cc(Cl)ccc2C(=O)N2Cc3ccccc3C[C@H]2CN2CCOCC2)c1C.Cl [Example 210, hydrochloride]" grouplabel="label 1"
compound=COc1ccc(C(=O)N2Cc3ccccc3C[C@H]2CN(C)C)c(-n2cc(C(=O)N(c3ccccc3)c3ccc(O)cc3)c3ccccc32)c1 grouplabel="label 0"
compound="Cc1cc(C(=O)N(c2ccccc2)c2ccc(O)cc2)cn1-c1cc2c(cc1C(=O)N1Cc3ccccc3C[C@H]1CN1CCOCC1)CCC2 [Example 107, hydrochloride]" grouplabel="label 0"
compound=COc1cc(-n2cc(C(=O)N(c3ccccc3)c3ccc4[nH]ccc4c3)c3ccccc32)c(C(=O)N2Cc3ccccc3C[C@H]2CN2CCN(C)CC2)cc1O grouplabel="label 1"
compound=CN1CCN(C[C@@H]2Cc3ccccc3CN2C(=O)c2ccc(Cl)cc2-n2cc(C(=O)N(c3ccc(O)cc3)c3ccc4[nH]ccc4c3)c3ccccc32)CC1 grouplabel="label 1"
compound="Cc1cc(C(=O)N(c2ccc(O)cc2)c2ccc3c(c2)CCN3)cn1-c1cc2c(cc1C(=O)N1Cc3ccccc3C[C@H]1CN1CCOCC1)CCC2 [Example 110, hydrochloride]" grouplabel="label 1"
compound=Cc1ccc(N(C(=O)c2cn(-c3cc4c(cc3C(=O)N3Cc5ccccc5C[C@H]3CN3CCN(C)CC3)OCO4)c3ccccc23)c2ccc3[nH]ccc3c2)cc1 grouplabel="label 0"
compound=COc1ccc(C(=O)N2Cc3ccccc3C[C@H]2CN)c(-n2cc(C(=O)N(c3ccccc3)c3ccccc3)c3ccccc32)c1 grouplabel="label 0"
compound=CN1CCN(C[C@@H]2Cc3ccccc3CN2C(=O)c2cc3c(cc2-n2cc(C(=O)N(c4ccccc4)c4ccc(O)cc4)c4ccc(F)cc42)OCO3)CC1 grouplabel="label 1"
compound=Cc1cc(C(=O)N(c2ccc(O)cc2)c2ccc(O)cc2)cn1-c1cc(Br)ccc1C(=O)N1Cc2ccccc2C[C@H]1CN1CCN(C)CC1 grouplabel="label 1"
compound=CN1CCN(C[C@@H]2Cc3ccccc3CN2C(=O)c2cc3c(cc2-n2cc(C(=O)N(c4ccc(O)cc4)c4ccc5c(c4)CCN5)c4ccccc42)OCO3)CC1 grouplabel="label 1"
compound=Cc1cc(C(=O)N(c2ccc(O)cc2)c2ccc3[nH]ccc3c2)cn1-c1cc(Br)ccc1C(=O)N1Cc2ccccc2C[C@H]1CN1CCN(C2CCCC2)CC1 grouplabel="label 1"
compound=O=C(c1cn(-c2cc(Cl)ccc2C(=O)N2Cc3ccccc3C[C@H]2CN2CCCCC2)c2ccccc12)N(c1ccccc1)c1ccc(O)cc1 grouplabel="label 0"
compound="CCC1COc2cc(-n3cc(C(=O)N(c4ccccc4)c4ccc(O)cc4)c4ccccc43)c(C(=O)N3Cc4ccccc4C[C@H]3CN3CCN(C)CC3)cc2O1 (some centres unmarked)" grouplabel="label 1"
compound="Cc1c(C(=O)N(c2ccc(O)cc2)c2cnc3c(ccn3C)c2)cn(-c2cc(Cl)ccc2C(=O)N2Cc3ccccc3C[C@H]2CN2CCOCC2)c1C [Example 209, hydrochloride]" grouplabel="label 1"
compound=COc1ccc(C(=O)N2Cc3ccccc3C[C@H]2CN)c(-n2cc(C(=O)N(c3ccccc3)c3ccc(O)cc3)c3ccccc32)c1 grouplabel="label 1"
compound="Cc1cc(C(=O)N(c2ccc(O)cc2)c2ccc3c(ccn3C)c2)cn1-c1cc(Cl)c(F)cc1C(=O)N1Cc2ccccc2C[C@H]1CN1CCN(C)CC1 [Example 77, hydrochloride]" grouplabel="label 1"
compound=CC(C)n1ccc2cc(N(C(=O)c3cn(-c4cc5c(cc4C(=O)N4Cc6ccccc6C[C@H]4CN4CCN(C)CC4)OCO5)c4ccccc34)c3ccc(O)cc3)ccc21 grouplabel="label 1"
compound="Cc1cc(C(=O)N(c2ccccc2)c2ccc(O)cc2)cn1-c1cc2c(cc1C(=O)N1Cc3ccccc3C[C@H]1CCN1CCOCC1)OCO2 [Example 120, hydrochloride]" grouplabel="label 1"
compound=Cc1cc(C(=O)N(c2ccccc2)c2ccc(O)cc2)cn1-c1cc2c(cc1C(=O)N1Cc3ccccc3C[C@H]1CN1CCN(C)CC1)OCO2 grouplabel="label 1"
compound=NC[C@@H]1Cc2ccccc2CN1C(=O)c1ccccc1-n1nc(C(=O)N(c2ccccc2)c2ccc(O)cc2)c2ccccc21 grouplabel="label 0"
